Some sequences, each annotated with its measured apparent KD of K4 kissing-loop reporter.
tested on: K4 kissing-loop RNA reporter; assay: apparent KD of K4 kissing-loop reporter; higher = weaker reporter binding; details: Eterna round: R107; input ligand: FMN 200 uM
measured metric: apparent KD of K4 kissing-loop reporter (nM)

sequence_data="AAGAGAGCGAGAAGGAGCGAGAAAGCUAGUGCAUAUGCACUAGCAAAGCAGUGAUGUUGCACUCAGGUAGGUCGCUCGCUCUCAA [AK1.2 SS Arginine B]" measured_metric="apparent KD of K4 kissing-loop reporter" measured_result=384
sequence_data="CGACUAGUCUUGCAACCCUAGUCGAUAUGCUAGGAUAUCAGGAAACUGAGAAGGAGUUUACUUGCAGUGAUGUUGCAAGAAUAAU [KL-SSFMN-A10]" measured_metric="apparent KD of K4 kissing-loop reporter" measured_result=135
sequence_data=GCAUCCUAUGCAGGAUAUUAGCAUUUGAGUGAUGUUCAGACUAGCGAAAGCUAGUCAAUUGCUGGUUAAGAAGGGCAUAGGAUGC measured_metric="apparent KD of K4 kissing-loop reporter" measured_result=891

* * *

tested on: K4 kissing-loop RNA reporter; experiment: apparent KD of K4 kissing-loop reporter; higher = weaker reporter binding; conditions: Eterna round: R107; input ligand: theophylline 20 uM
Where apparent KD of K4 kissing-loop reporter equals or exceeds 300 nM, the correct label is satisfied; where it does not, the label is not satisfied.

sequence_data="UAUGAAGGUGGAGGAUAUUGAUUGAAUCUUGGUCUGGAGUGAUGUUCCGGGAAGCCUUGGAUUCAUCGAGAAGGCCAAGGAUAGU [Extra 1]" category_label="not satisfied"
sequence_data="UUUAUUAAGACGGCCGCCACUGAAUCAUAGUGAUGUUAUGAUAUAAUUUUAGUGAUUUUGAUUAGCAGGACCGGGUCAAUUAUUA [#26 K4 Tryptophan B Exclusion]" category_label="not satisfied"
sequence_data=CGGAUCGCAUCAGGAUAUCUCUCAUCAGUGAUGUUGGUGAAGCGUACGCGAAAGCGUACGCAGAUGAGAGAAGGGAUGCGAUCCG category_label=satisfied
sequence_data="AAGUUAUGAUCUGAUACCAGACUUUAUCUUGUUUAUAAGUCAAGUGAUGUUUGACUAUUAGUCCCUUGGCAGCAGUAUUGUUUAA [#18 K4 Theophylline B Same State]" category_label="not satisfied"
sequence_data="CCAGAAUGAUGAGGAUGAUAAAUUACUGAAGGAGCGCAUAUAGUUGCAGGUAGGUCGCGGUGAAUAAGUAUAGUGAUGUUAUACC [SSArgA.Ab]" category_label=satisfied
sequence_data="GGCGUCUAAAAGUGCCUAGAGAGAAAGGAUACCAGCACCCGGCGGUGCCCUUGGCAGCCUAGCCCAGUGAUGUUGGGUCCUCUAA [Lasorian]" category_label=satisfied

* * *

Reported apparent KD of MS2 coat protein values for the following sequences.
tested on: MS2 coat protein; assay: apparent KD of MS2 coat protein; designed switch direction (-1 OFF switch, 1 ON switch): 1; higher = weaker reporter binding; conditions: Eterna round: R95; input ligand: none
measured metric: apparent KD of MS2 coat protein

sequence_data="UCUUGGUUUUUGCUCGUUUUUUGUGUUGAACAUGAGGAUCACCCAUGUAUUGUACGGUCCGAUUUAGUGAUGGUCCA [JMF 40] (puzzle: Sensor for hsa-mir-208a)" measured_result="42.5 nM"
sequence_data="CAGCGCUGUCGAGAGGAUAUGUGGUGAUGGACAUGAGGAUCACCCAUGUUAGCGACAGUAUCACGGCAGAAGGCUCUACCGCUGC [Soteed Omei mod 31] (puzzle: Same State 2)" measured_result="44 nM"
sequence_data="CGUCCGGCCUGUGCUGGCCGGCGGCUUGUACAUGAGGAUCACCCAUGUUCUUGUGCUGGCUUUUUGCUCGUCUUGUG [salish99_mir208a_022] (puzzle: Sensor for hsa-mir-208a)" measured_result="39.5 nM"
sequence_data="GUUAAACAUGAGGAUCACCCAUGUAAUAAUAUGGGAGGAUAUGGGAAUUAAUUAAUUAAACCAGAAGGCCUAAUUG [Mat - Same State 1 - D84] (puzzle: Same State 1)" measured_result="189 nM"
sequence_data="CCGGUGAUAGGGCAGGAUAUGACUGUCGUCACAUGAGGAUCACCCAUGUCCCGGCAAUGCCACCGUUAGAAGGGCCCUAUCCCGA [Teuszaesti] (puzzle: Same State 2)" measured_result="15 nM"

* * *

tested on: MS2 coat protein; assay: apparent KD of MS2 coat protein; designed switch direction (-1 OFF switch, 1 ON switch): 1; higher = weaker reporter binding; details: Eterna round: R95; input ligand: microRNA oligo, concentration not stated
Response key: Y means apparent KD of MS2 coat protein >= 20 nM; N means apparent KD of MS2 coat protein < 20 nM.

sequence_data="GAUAGACAUGAGGAUCACCCAUGUGACAAAACCACAGGAUAUCAUGCAGGCGUAACUGCAUGAGAAGGGUGAGACU [Quanve] (puzzle: Same State 1)" system_under_test="MS2 coat protein" category_label=Y
sequence_data="GCCGCACAUGAGGAUCACCCAUGUAAUUACAUGGGAGGAUAUCAGUGCUCGAAAGAGCACUGAGAAGGCCUAAGGC [SS1 - Omei A] (puzzle: Same State 1)" system_under_test="MS2 coat protein" category_label=Y
sequence_data="AGUCCAGCCUGAGCUGGACAAAAGCAUGUACAUGAGGAUCACCCAUGUCAUGUAUAAGCUUUUUGCUCGUCUUAAAA [Zipper 46 - 10] (puzzle: Sensor for hsa-mir-208a)" system_under_test="MS2 coat protein" category_label=N
sequence_data="AGUCCAGCAUGAGCUGGACAAAAGCAUGUACAUGAGGAUCACCCAUGUUCAUGUACAAGCUUUUUGCAAGUCAAAAU [Mat - hsa-mir-208a - Mod of JL - 81] (puzzle: Sensor for hsa-mir-208a)" system_under_test="MS2 coat protein" category_label=N
sequence_data="GGAGGAUGAGCGUAGGAUAUAGGAGGAGUGACAUGAGGAUCACCCAUGUAGUAGGAGGGAAAGGGCUAGAAGGACGAGGAAGAGG [JR_SS2_Sub071] (puzzle: Same State 2)" system_under_test="MS2 coat protein" category_label=Y

* * *

apparent KD of K4 kissing-loop reporter by entry:
tested on: K4 kissing-loop RNA reporter; assay: apparent KD of K4 kissing-loop reporter; higher = weaker reporter binding; details: Eterna round: R107; input ligand: FMN 200 uM;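 note: bound reporter read as fluorescence of individual clusters on recovered sequencing chips by microscopy, with normalized cluster intensities fitted with a binding model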
measured metric: apparent KD of K4 kissing-loop reporter (nM)

sequence_data="UCUGAAUUAUCUGAUACCAGACUUUUUGUAUUUAUUAAAACUAGUGAUGUUAGUUUAUCUGUCCCUUGGCAGCAGUUUCUACAGA [JR_Nu_ExcTheophyB_Sub022]" measured_result=79.9
sequence_data="UUGUUUGGUUGAGAGGUUGGGCGAGAUGAUACCAGUAGAUAAGAAUACCCUUGGCAGCAUAAGAAAGAUAUAGUGAUGUUGUAUA [SSTheophA.N]" measured_result=566
sequence_data=UCCUGCAAUCAACCACGAAAGUGGUUCGAUACCAGAGUCGAAAGACUCCCUUGGCAGCGAGUGAUGUUCGAGCAGGUAAAAUAAA measured_result=862

* * *

Property: apparent KD of MS2 coat protein; scope: individual sequences
tested on: MS2 coat protein; assay: apparent KD of MS2 coat protein; designed switch direction (-1 OFF switch, 1 ON switch): -1; higher = weaker reporter binding; conditions: input ligand: FMN 200 uM
measured metric: apparent KD of MS2 coat protein (nM)

sequence_data="AACCUGAGGCAAAGCUUUAGGUGUACAUGAGGAUCACCCAUGUAGGAUAUGGUAGGCAAAGCUUACCAGAAGGACAUGUUAAUU [Mat - Exclusion NG 3 - Mod of JL - D38] (Eterna round: R96, puzzle: Exclusion NG 3)" measured_metric="apparent KD of MS2 coat protein" measured_result=172
sequence_data="CCGGUUGGCGCAGGAUAUACAUGAGGAUCACCCAUGUUCAUGAGGAUCACCCAUGAGGUAAUGAUGUAGAAGGGUGGCCCGGCC [A second MS2 with the first and last base exchanged] (Eterna round: R96, puzzle: Exclusion NG 2)" measured_metric="apparent KD of MS2 coat protein" measured_result=30.5
sequence_data="CCGUAGUCAGGAUAUACAUGAGGAUCACCCAUGUAAAAUUUUAAUUUAAUUUGAAGGUGUAGAAGGGACCAGCC [Ex3 #28] (Eterna round: R97, puzzle: Exclusion 3)" measured_metric="apparent KD of MS2 coat protein" measured_result=33.5
sequence_data="CUCCUACUUGUAGGAUAUCAGAGAUAACAUGAGGAUCACCCAUGUUGGGUCAUCAACUCAGUCGGUGAGAAGGACAGAAGUUGG [Eternabot solution 42] (Eterna round: R96, puzzle: Exclusion NG 2)" measured_metric="apparent KD of MS2 coat protein" measured_result=96.1

* * *

system: MS2 coat protein; experiment: apparent KD of MS2 coat protein; designed switch direction (-1 OFF switch, 1 ON switch): -1; higher = weaker reporter binding; details: input ligand: none
Assign class by apparent KD of MS2 coat protein: not lower than 60 nM means Criterion met; lower than 60 nM means Criterion not met.

sequence_data="ACAAGCUUAAUCUGUAUGAACAUGAGGAUCACCCAUGUAAAAGGGAAUACUUUUGGGUUUUUUAUAGCUCGUCUUAU [JR_STOV1_Sub019] (Eterna round: R97, puzzle: Sensor, turn-off variant 1)" system_under_test="MS2 coat protein" category_label="Criterion not met"
sequence_data="GCAAGAAUAGGAUAUACAACAUGCCAGCUUCUUUACAACGCACAUGAGGAUCACCCAUGUAGAAGGGUUCUCUA [Exclusion-2-#13] (Eterna round: R97, puzzle: Exclusion 2)" system_under_test="MS2 coat protein" category_label="Criterion met"
sequence_data="CCCUCACAUGAGGAUCACCCAUGUCAGGAUAUUCAAAGCGCAAAUGCGCCAAAUGCAGGAAGAAGGGACGUGCC [Bisoar] (Eterna round: R96, puzzle: Exclusion 1)" system_under_test="MS2 coat protein" category_label="Criterion not met"
sequence_data="ACAUGUAUUGCAGGAUAUGGGACACAUGAGGAUCACCCAUGUGACUACAUGUCAUACCACGCGUCUCAGAAGGGUAUGUACAUG [Ex NG2 #39] (Eterna round: R96, puzzle: Exclusion NG 2)" system_under_test="MS2 coat protein" category_label="Criterion not met"
sequence_data="AGUUGGCGAGGAUAUACAUGAGGAUCACCCAUGUGAAAUCCAAGUGAGGAAAUGAAAAGUAGAAGGCGCUGACA [Mod of Mat 23 - Jieux - Exclusion 3] (Eterna round: R97, puzzle: Exclusion 3)" system_under_test="MS2 coat protein" category_label="Criterion not met"
sequence_data="CUUAUGUCAGGAUAUGCCUGGCCGUGAGGCCAAAUUGAAUAGCAGAAGGGACAUGAGGAUCACCCAUGUCCGGG [jl-ex4-4.64 ViennaUCT mod] (Eterna round: R97, puzzle: Exclusion 4)" system_under_test="MS2 coat protein" category_label="Criterion met"
sequence_data="GUAUAACAUGUAGGAUAUGCAUGGCGAAGCUAUGCAGAAGGACAUGAGGAUCACCCAUGUAAUAGCGUCUGCGUACAGAUGCAA [Mat - Exclusion NG 1 - Mod of JL - D91] (Eterna round: R96, puzzle: Exclusion NG 1)" system_under_test="MS2 coat protein" category_label="Criterion not met"
